Origin of the recorded values: ChEMBL document CHEMBL1255546

Target: Histamine H4 receptor (Homo sapiens)
Test: Displacement of [3H]-histamine from human histamine H4 receptor
Set-up: concentration or dose not given beside the values
Conditions: concentration not given here
Each entry below lists one item and its recorded inhibition value.
Return type: number; implicit unit %.

Quick check: inhibition of O=C1NCCn2c1cc1cc(OC3CCN(CC4CC4)CC3)ccc12 ?
3

Quick check: inhibition of CC(C)N1CCC(Oc2ccc3c(c2)cc2n3[C@H](C)CNC2=O)CC1 ?
9

Quick check: inhibition of CC(C)N1CCC(Oc2ccc3c(c2)cc2n3CCN(CC(F)(F)F)C2=O)CC1 ?
-4

Quick check: inhibition of CC(C)N1CCC(Oc2ccc3c(c2)cc2n3C[C@H](C)NC2=O)CC1 ?
15

Quick check: inhibition of CC(C)N1CCC(Oc2ccc3c(c2)cc2n3CCN(Cc3ccccc3F)C2=O)CC1 ?
1

###

Each entry below lists one item and its recorded microsomal CLint value.
Assay: Intrinsic clearance in rat liver microsomes
Assay type: ADME, Microsome
Return type: number; implicit unit µL/min/mg.

Examples with their reported microsomal CLint follow.
CC(C)N1CCC(Oc2ccc3c(c2)cc(C(=O)N2CCC(F)(F)CC2)n3C(C)C)CC1    12
CC(C)N1CCC(Oc2ccc3c(c2)cc2n3C[C@@H](C)NC2=O)CC1    10
CC(C)N1CCC(Oc2ccc3c(c2)cc2n3[C@H](C)CNC2=O)CC1    29
CC(C)N1CCC(Oc2ccc3c(c2)cc2n3CCN(Cc3ccc(F)cc3)C2=O)CC1    17
CC(C)N1CCC(Oc2cc3cc4n(c3cc2Br)[C@@H](C)CNC4=O)CC1    12
CC(C)N1CCC(Oc2ccc3c(c2)cc2n3CCNC2=O)CC1    70
CC(C)N1CCC(Oc2ccc3c(c2)cc2n3CCN(Cc3ccncc3)C2=O)CC1    27
CC(C)N1CCC(Oc2ccc3c(c2)cc2n3CCCNC2=O)CC1    28

Quick check: microsomal CLint of C[C@@H]1CCCN1CCCOc1ccc2c(c1)cc1n2CCNC1=O ?
37

Quick check: microsomal CLint of CC(C)N1CCC(Oc2ccc3c(c2)cc2n3CCN(C)C2=O)CC1 ?
23

###

Target: Histamine H2 receptor (Homo sapiens)
Assay: Displacement of [3H]-tiotidine from human histamine H2 receptor
Design: concentration or dose not given beside the values
Settings: concentration not given here
quantity: inhibition (%)
Return type: number; implicit unit %.

Examples with their reported inhibition follow.
O=C1NCCn2c1cc1cc(OCCCN3CCCCC3)ccc12    45
CC(C)N1CCC(Oc2cc3cc4n(c3cc2Br)[C@@H](C)CNC4=O)CC1    18
CC(C)N1CCC(Oc2ccc3c(c2)cc2n3CCN(Cc3cccc(F)c3)C2=O)CC1    21
CC(C)N1CCC(Oc2ccc3c(c2)cc2n3CCN(CC3CC3)C2=O)CC1    6
CC(C)N1CCC(Oc2ccc3c(c2)cc2n3CCCNC2=O)CC1    9

Now for another entry.
Quick check: inhibition of COCCN1CCn2c(cc3cc(OC4CCN(C(C)C)CC4)ccc32)C1=O ?
6

###

Each entry below lists one item and its recorded pEC50 value.
Biological target: Histamine H3 receptor (Homo sapiens, UniProt Q9Y5N1)
Sequence (Q9Y5N1 whole entry): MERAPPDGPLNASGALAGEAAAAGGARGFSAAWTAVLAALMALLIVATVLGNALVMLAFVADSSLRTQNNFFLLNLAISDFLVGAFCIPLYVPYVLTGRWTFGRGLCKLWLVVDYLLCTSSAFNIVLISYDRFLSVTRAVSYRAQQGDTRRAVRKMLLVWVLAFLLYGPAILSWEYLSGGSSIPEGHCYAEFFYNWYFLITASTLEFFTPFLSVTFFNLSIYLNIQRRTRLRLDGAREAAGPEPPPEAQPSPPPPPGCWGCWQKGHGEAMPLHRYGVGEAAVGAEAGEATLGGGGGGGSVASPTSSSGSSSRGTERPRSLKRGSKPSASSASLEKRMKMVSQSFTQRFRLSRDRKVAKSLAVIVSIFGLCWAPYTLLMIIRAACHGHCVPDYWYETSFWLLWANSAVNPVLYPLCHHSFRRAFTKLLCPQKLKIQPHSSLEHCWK
Assay: Inverse agonist activity at human recombinant histamine H3 receptor assessed as effect on [35S]GTPgammaS binding
By convention, pEC50 is the negative base-10 log of a molar concentration.

Examples with their reported pEC50 follow.
CC(C)N1CCC(Oc2ccc3c(c2)cc2n3[C@H](C)CNC2=O)CC1    7.54
CC(C)N1CCC(Oc2ccc3c(c2)cc2n3CCN(Cc3cccnc3)C2=O)CC1    7.89

Quick check: pEC50 of CC(C)N1CCC(Oc2ccc3c(c2)cc2n3CCCN(CC3CC3)C2=O)CC1 ?
7.44

Quick check: pEC50 of CC(C)N1CCC(Oc2ccc3c(c2)cc2n3CCN(CC3CC3)C2=O)CC1 ?
7.55

Quick check: pEC50 of C[C@H]1CC[C@H](C)N1CCCOc1ccc2c(c1)cc1n2CCNC1=O ?
7.62

Quick check: pEC50 of CC(C)N1CCC(Oc2cc3cc4n(c3cc2Br)[C@@H](C)CNC4=O)CC1 ?
8.40

Quick check: pEC50 of CC(C)N1CCC(Oc2cc3cc4n(c3cc2Br)[C@@H](C)CN(CC2CC2)C4=O)CC1 ?
8.70

Quick check: pEC50 of CC(C)N1CCC(Oc2ccc3c(c2)cc2n3CCCNC2=O)CC1 ?
7.59

Quick check: pEC50 of CC(C)N1CCC(Oc2ccc3c(c2)cc2n3CCN(Cc3cccc(F)c3)C2=O)CC1 ?
7.64

Quick check: pEC50 of CC(C)N1CCC(Oc2ccc3c(c2)cc2n3[C@@H](C)CNC2=O)CC1 ?
7.03
